Origin of values: PubChem BioAssay AID2060906

Tested on: 485176-168-R4-J1-PDC complex spheroid growth;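 further: spheroids exposed to compounds for seven days before readout; luminescence viability expressed relative to DMSO vehicle wells set as 100%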
Test: Anticancer human tumor 485176-168-R4-J1-PDC patient-derived pancreatic adenocarcinoma cell line growth inhibition [RAS]
Details: second compound 1 µM; first compound 0.0316 µM; hits give low values
# viability, T/C per entry
Numeric only. Scale: %

Examples with answers:
- CCC(CC)c1cc(NC2CCC(N)C2)n2nccc2n1 (stereo not given) + C#Cc1c(F)ccc2cc(O)cc(-c3ncc4c(N5CC6CCC(C5)N6)nc(OCC56CCCN5CC(F)C6)nc4c3F)c12: 113
- C=CC(=O)N1CCN(c2nc(OCC3CCCN3C)nc3c(F)c(-c4nc(N)cc(C)c4C(F)(F)F)c(Cl)cc23)C(C)C1 (stereo not given) + C#Cc1c(F)ccc2cc(O)cc(-c3ncc4c(N5CC6CCC(C5)N6)nc(OCC56CCCN5CC(F)C6)nc4c3F)c12: 77.5
- CC(C)NCC(C(=O)N1CCN(c2ncnc3c2C(C)CC3O)CC1)c1ccc(Cl)cc1 (stereo not given) + C=CC(=O)N1CCN(c2nc(OCC3CCCN3C)nc3c(F)c(-c4nc(N)cc(C)c4C(F)(F)F)c(Cl)cc23)C(C)C1: 108
- CCC(CC)c1cc(NC2CCC(N)C2)n2nccc2n1 (stereo not given) + C=CC(=O)N1CCN(c2nc(OCC3CCCN3C)nc3c(F)c(-c4nc(N)cc(C)c4C(F)(F)F)c(Cl)cc23)C(C)C1: 94.8

viability, T/C measured on C[C@@H](NC(=O)c1ncnc(N)c1Cl)c1ncc(C(=O)Nc2cc(C(F)(F)F)c(Cl)cn2)s1 + C=CC(=O)N1CCN(c2nc(OCC3CCCN3C)nc3c(F)c(-c4nc(N)cc(C)c4C(F)(F)F)c(Cl)cc23)C(C)C1 = 100
